- Test system: MCF7
- assay_procedure: Antiproliferative activity against human MCF7 cells after 72 hrs by MTT assay
- Type: functional, cell-based
- test_conditions: MCF7, 72 h
parameter_measured: IC50

Asked: Report IC50 for COc1nc(CC(O)COCc2ccccc2)c(C)c(OC)n1 (stereo unspecified) tested on MCF7.
Given back: > 100 µM

Asked: Recall the recorded IC50 for COCn1c(CC(O)CO)c(C)c(=O)[nH]c1=O (stereo unspecified) with MCF7 and state it.
Given back: > 100 µM

Asked: State its IC50 on MCF7: COCn1c(CC(COCc2ccccc2)COCc2ccccc2)c(C)c(=O)[nH]c1=O
Given back: 72.6 µM

Asked: # get_value(readout= IC50, system= MCF7) for C[Si](C)(C)CCOCn1c(CC(O)CO)cc(=O)[nH]c1=O (stereo unspecified)
Given back: > 100 µM

Asked: Fill in the recorded IC50 for this compound, with MCF7 as test system: O=c1cc(CC(O)COCc2ccccc2)[nH]c(=O)[nH]1 (stereo unspecified)
Given back: > 100 µM

Asked: Form: Entry = COCn1c(=O)[nH]c(CC(COCc2ccccc2)COCc2ccccc2)c(C)c1=O | System = MCF7 | IC50 = ____
Given back: 21.6 µM

###

- System: MCF7
- assay_procedure: Antiproliferative activity against human MCF7 cells after 72 hrs by MTT assay
- Type: functional, cell-based
- test_conditions: MCF7, 72 h
pIC50: −log10 of the molar value.
parameter_measured: pIC50

Asked: Find the recorded pIC50 belonging to Cc1c(CC(O)COCc2ccccc2)n(COCC[Si](C)(C)C)c(=O)[nH]c1=O (stereo unspecified) and report it.
Given back: < 4.00

Asked: Can you share its pIC50? I mean this compound: Cc1c(CC(O)CO)n(COCC[Si](C)(C)C)c(=O)[nH]c1=O (stereo unspecified)
Given back: < 4.00

Asked: Query: pIC50; subject: C[Si](C)(C)CCOCn1c(CC(O)(CO)CO)cc(=O)[nH]c1=O
Given back: < 4.00

Asked: Tell me the measured pIC50 of O=c1cc(CC(COCc2ccccc2)COCc2ccccc2)[nH]c(=O)[nH]1 , please.
Given back: < 4.00

Asked: Item under review: COc1cc(CC(O)COCc2ccccc2)nc(OC)n1 (stereo unspecified) . Reported pIC50?
Given back: < 4.00

Asked: # lookup: pIC50 of C[Si](C)(C)CCOCn1c(CC(O)COCc2ccccc2)cc(=O)[nH]c1=O (stereo unspecified)
Given back: < 4.00

###

- System: WI-38
- assay_procedure: Antiproliferative activity against human WI38 cells after 72 hrs by MTT assay
- Assay type: cell-based
- test_conditions: Homo sapiens, WI-38, 72 h
parameter_measured: pIC50
By convention, pIC50 is the negative base-10 log of a molar concentration.

Asked: Field request: pIC50 | item: COCn1c(CC(COCc2ccccc2)COCc2ccccc2)c(C)c(=O)[nH]c1=O
Given back: 4.51

Asked: Endpoint output: pIC50 of COCn1c(=O)[nH]c(CC(COCc2ccccc2)COCc2ccccc2)c(C)c1=O . Value?
Given back: 4.71

Asked: If you can, please state the reported pIC50 value of COCn1c(CC(COCc2ccccc2)COCc2ccccc2)c(C)c(=O)n(COC)c1=O .
Given back: 6.52
